# System: TOV-21G (Ovarian Carcinoma);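 further: after 72 h of two-drug dosing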
# METHOD DESCRIPTION: Bliss excess, mean over the matrix (fraction); higher = more synergy
Label true (1) when Bliss excess is at or above -0.03; otherwise label false (0).

Reference set, count: 3
COMPOUND	CATEGORY LABEL
CC1(C)CCC(CN2CCN(c3ccc(C(=O)NS(=O)(=O)c4ccc(NCC5CCOCC5)c([N+](=O)[O-])c4)c(Oc4cnc5[nH]ccc5c4)c3)CC2)=C(c2ccc(Cl)cc2)C1 [Venetoclax] + CN(C)CCCOc1ccc(-c2ccc3ncc4c(c3c2)n(C2CCOCC2)c(=O)n4C)cn1 [AZD0156] (first compound max 1 µM, 7x7, partner max 1 µM)	false (0)
CC1(C)CCC(CN2CCN(c3ccc(C(=O)NS(=O)(=O)c4ccc(NCC5CCOCC5)c([N+](=O)[O-])c4)c(Oc4cnc5[nH]ccc5c4)c3)CC2)=C(c2ccc(Cl)cc2)C1 [Venetoclax] + Cn1cnc2c(F)c(Nc3ccc(Br)cc3Cl)c(C(=O)NOCCO)cc21 [Selumetinib] (first compound max 1 µM, 7x7, partner max 3 µM)	true (1)
COc1cccc(OCCCN)c1-c1cc(Nc2cnc(C#N)cn2)n[nH]1 [Prexasertib] + C[C@@H]1COCCN1C2=NC(=NC(=C2)C3(CC3)[S@](=N)(=O)C)C4=C5C=CNC5=NC=C4 [AZD6738] (first compound max 1 µM, 7x7, partner max 10 µM)	false (0)

## Task Quick check, Bliss excess >= -0.03? Cn1cnc2c(F)c(Nc3ccc(Br)cc3Cl)c(C(=O)NOCCO)cc21 [Selumetinib] + C=CCn1c(=O)c2cnc(Nc3ccc(N4CCN(C)CC4)cc3)nc2n1-c1cccc(C(C)(C)O)n1 [AZD1775] (first compound max 10 µM, partner max 1 µM)
## Result false (0)

## Task Quick check, Bliss excess >= -0.03? CC1(C)CCC(CN2CCN(c3ccc(C(=O)NS(=O)(=O)c4ccc(NCC5CCOCC5)c([N+](=O)[O-])c4)c(Oc4cnc5[nH]ccc5c4)c3)CC2)=C(c2ccc(Cl)cc2)C1 [Venetoclax] + CCN(CCO)CCCOc1ccc2c(Nc3cc(CC(=O)Nc4cccc(F)c4)[nH]n3)ncnc2c1 [AZD2811] (first compound max 1 µM, 7x7, partner max 1 µM)
## Result true (1)

## Task Quick check, Bliss excess >= -0.03? CCN(CCO)CCCOc1ccc2c(Nc3cc(CC(=O)Nc4cccc(F)c4)[nH]n3)ncnc2c1 [AZD2811] + C=CCn1c(=O)c2cnc(Nc3ccc(N4CCN(C)CC4)cc3)nc2n1-c1cccc(C(C)(C)O)n1 [AZD1775] (first compound max 1 µM, partner max 1 µM)
## Result true (1)
